Below, each of the compounds is paired with its reported JAK1/TYK2 selectivity value.
Molecular target: TYK2-JH2 domain (Homo sapiens, UniProt P29597)
Construct: JAK1-JH2 domain or TYK2-JH2 domain enzyme in assay buffer
Sequence (P29597 589-875 limits assumed): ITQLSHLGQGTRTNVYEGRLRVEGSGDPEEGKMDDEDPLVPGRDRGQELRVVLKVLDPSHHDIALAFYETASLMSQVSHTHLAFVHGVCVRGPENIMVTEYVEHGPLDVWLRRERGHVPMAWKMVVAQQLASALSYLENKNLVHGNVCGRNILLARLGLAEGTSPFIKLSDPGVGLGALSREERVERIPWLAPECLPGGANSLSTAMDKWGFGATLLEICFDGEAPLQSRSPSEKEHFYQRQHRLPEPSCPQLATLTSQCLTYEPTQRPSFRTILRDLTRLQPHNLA
Test: Binding activity test for JH2 domain of TYK2 (Tb-antibody/tracer FRET)
Conditions: ratio of JAK1 JH2 to TYK2 JH2 binding IC50

compound: [2H]C([2H])([2H])CC(=O)c1cnc(NC(=O)C2CC2)cc1Nc1nn(C)c2ccc(C(OC)C(F)(F)F)c(OC)c12 (single isomer, unassigned) [Example 65B]
inequality-symbol: =
JAK1/TYK2 selectivity: 144.84

compound: CCC(=O)c1cnc(NC(=O)C2CC2)cc1Nc1ccn2nccc2c1OC [Example 195, reference compound]
inequality-symbol: =
JAK1/TYK2 selectivity: 22.68

compound: [2H]C([2H])([2H])NC(=O)c1nnc(NC(=O)C2CC2)cc1Nc1nn(C)c2ccc([C@@H](OC)C(F)(F)F)c(OC)c12 [Example 51A]
inequality-symbol: =
JAK1/TYK2 selectivity: 40.84

compound: COC(=O)c1cnc(NC(=O)C2CC2)cc1Nc1nn(C)c2ccc(C(OC)C(F)(F)F)c(OC)c12 (centres unmarked)
inequality-symbol: =
JAK1/TYK2 selectivity: 307.51

compound: COc1c([C@H](OC)C(F)(F)F)ccn2ncc(Nc3cc(NC(=O)C4CC4)ncc3C(O)CC#N)c12 (some centres unmarked)
inequality-symbol: =
JAK1/TYK2 selectivity: 3.00

compound: [2H]C([2H])([2H])NC(=O)c1cnc(NC(=O)C2CC2)cc1Nc1nn(CC)c2ccc(C(O)C(F)(F)F)c(OC)c12 (single isomer, unassigned) [Example 71A]
inequality-symbol: =
JAK1/TYK2 selectivity: 51.84

compound: COC(=O)c1cnc(NC(=O)[C@@H]2C[C@@H]2F)cc1Nc1nn(C)c2ccc(C(O)C(F)(F)F)c(OC)c12 (single isomer, unassigned) [Example 122A]
inequality-symbol: =
JAK1/TYK2 selectivity: 216.29

compound: [2H]C([2H])([2H])NC(=O)c1cnc(NC(=O)C2CC2)cc1Nc1cnn2ccc(CC(C)(F)F)c(OC)c12
inequality-symbol: =
JAK1/TYK2 selectivity: 235.2

compound: [2H]C([2H])([2H])NC(=O)c1cnc(NC(=O)C2CC2)cc1Nc1nn(C)c2ccc([C@H](OC)C(F)(F)F)c(OC)c12 [Example 46A]
inequality-symbol: =
JAK1/TYK2 selectivity: 40.64

compound: [2H]C([2H])([2H])NC(=O)c1cnc(NC(=O)C2CC2)cc1Nc1cnn2ccc([C@@H](O)C(F)(F)F)c(OC)c12
inequality-symbol: =
JAK1/TYK2 selectivity: 24.4

compound: [2H]C([2H])([2H])NC(=O)c1cnc(NC(=O)[C@@H]2C[C@@H]2F)cc1Nc1cnn2ccc(C(O)C(F)(F)F)c(OC)c12 (single isomer, unassigned) [Example 15A]
inequality-symbol: =
JAK1/TYK2 selectivity: 160.8

compound: [2H]C([2H])([2H])CC(=O)c1cnc(NC(=O)C2CC2)nc1Nc1cccc(-c2cnn(C)n2)c1OC
inequality-symbol: =
JAK1/TYK2 selectivity: 116.34

compound: CNC(=O)c1cnc(NC(=O)C2CC2)cc1Nc1nn(C)c2ccc([C@H](OC)C(F)(F)F)c(OC)c12
inequality-symbol: =
JAK1/TYK2 selectivity: 25.71

compound: COC(=O)c1c(Nc2nn(C)c3ccc(C(OC)C(F)(F)F)c(OC)c23)cc(NC(=O)C2CC2)nc1N (centres unmarked)
inequality-symbol: >
JAK1/TYK2 selectivity: 3.19

compound: COC(=O)c1cnc(NC(=O)C2CC2)cc1Nc1cnn2ccc(C(C)C(F)(F)F)c(OC)c12 (centres unmarked)
inequality-symbol: =
JAK1/TYK2 selectivity: 51.39

compound: [2H]C([2H])([2H])NC(=O)c1cnc(Nc2cc(C)nc(C)n2)cc1Nc1cnn2ccc([C@H](O)C(F)(F)F)c(OC)c12
inequality-symbol: =
JAK1/TYK2 selectivity: 169.1

compound: [2H]C([2H])([2H])NC(=O)c1cnc(NC(=O)[C@@H]2C[C@@H]2F)cc1Nc1cnn2ccc(C#N)c(OC)c12
inequality-symbol: =
JAK1/TYK2 selectivity: 122.0

compound: COCC(OC)c1ccc2c(c(Nc3cc(NC(=O)C4CC4)ncc3C(=O)OC)nn2C)c1OC (centres unmarked)
inequality-symbol: =
JAK1/TYK2 selectivity: 40.45

compound: COC(=O)c1cnc2cc1Nc1cc(cc(-c3ccn(C)n3)c1OC)CCOCc1cccc(n1)N2
inequality-symbol: =
JAK1/TYK2 selectivity: 191.94

compound: [2H]C([2H])([2H])NC(=O)c1cnc(NC(=O)C2CC2)cc1Nc1cnn2ccccc12
inequality-symbol: >
JAK1/TYK2 selectivity: 1.6

compound: [2H]C([2H])([2H])NC(=O)c1cnc(NC(=O)C2CC2)cc1Nc1cnn2ccc(COC([2H])([2H])[2H])c(OC)c12
inequality-symbol: =
JAK1/TYK2 selectivity: 76.4

compound: [2H]C([2H])([2H])NC(=O)c1cnc(Nc2ccn(C)n2)cc1Nc1cnn2ccc([C@H](O)C(F)(F)F)c(OC)c12
inequality-symbol: =
JAK1/TYK2 selectivity: 142.7

compound: [2H]C([2H])([2H])NC(=O)c1cnc(Nc2ccc(N3CCOCC3)cn2)cc1Nc1nn(C)c2ccc([C@H](OC)C(F)(F)F)c(OC)c12
inequality-symbol: =
JAK1/TYK2 selectivity: 14.83

compound: CCOC(c1ccc2c(c(Nc3cc(NC(=O)C4CC4)ncc3C(=O)OC)nn2C)c1OC)C(F)(F)F (single isomer, unassigned) [Example 106B]
inequality-symbol: =
JAK1/TYK2 selectivity: 75.19

compound: [2H]C([2H])([2H])NC(=O)c1cnc(NC(=O)C2CC2)cc1Nc1cnn2ccc(CC(F)(F)F)c(OC)c12
inequality-symbol: =
JAK1/TYK2 selectivity: 32.0

compound: [2H]C([2H])([2H])NC(=O)c1cnc(NC(=O)C2CC2)cc1Nc1cnn2ccc(CO)c(OC)c12
inequality-symbol: =
JAK1/TYK2 selectivity: 40.6
